biological target: the molecule itself; experiment: native gel or EMSA; 10 ug MBP fusion protein on a 12% NativePAGE Bis-Tris gel, Coomassie Blue staining; self-association (oligomeric states)
recordedMetric: binding result

>>> datavalue("His-MBP-CHIP fusion protein, K145Q (enzyme, human, UniProt Q9UNE7-1 1-303, looked up, CHIP (STUB1), human, full-length cDNA in pETM-41, pathogenic SCAR16 variant K145Q; Variant found in patients; made by site-directed mutagenesis; also called MBP-CHIP K145Q; source: E. coli BL21-CodonPlus (DE3)-RP, purified (Ni-NTA)) MKGKEEKEGGARLGAGGGSPEKSPSAQELKEQGNRLFVGRKYPEAAACYGRAITRNPLVAVYYTNRALCYLKMQQHEQALADCRRALELDGQSVKAHFFLGQCQLEMESYDEAIANLQRAYSLAKEQRLNFGDDIPSALRIAKKQRWNSIEERRIHQESELHSYLSRLIAAERERELEECQRNHEGDEDDSHVRAQQACIEAKHDKYMADMDELFSQVDEKRKKRDIPDYLCGKISFELMREPCITPSGITYDRKDIEEHLQRVGHFDPVTRSPLTQEQLIPNLAMKEVIDAFISENGWVEDY")
"binds"

Source listed as paper PMC5408658.
